# ASSAY: protein stability index of a GFP-peptide fusion (GPS, HEK-293T) (PSI 1-6); higher = more stable;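 also: 24-mer peptide tiles fused after GFP, lentivirally expressed, FACS-sorted into six equal bins by GFP/DsRed ratio, decoded by Illumina sequencing, PSI is the read-weighted mean bin number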
# CONDITION_DETAILS: treatment: DMSO; c terminus: a fixed tail appended
Response key: true means protein stability index >= 4; false means protein stability index < 4.

| ORDERED_RESIDUES | CAT |
| --- | --- |
| MVDSFHRTSLQYGIMCLKRLNYDR [PPFIA4] | false |
| RPMHHEDFKEDLKKFRTKSRTWAG [CDC25A] | false |
| GKNNEFSRLVAGEYLSFFDFSGLT [PSD2] | false |
| RDRLRSRLEALSTERDEIEDVKCQ [TRIM15] | true |
| KAAEGGLSSPEFSELCIWLGSQIK [FAM98B] | false |
| EFTELLKVMIHPDPERRPSAMALV [WEE1] | false |
| RRARINESLQELRLLLAGAEVQAK [HES6] | false |
| IGTMAGITTPIIDTFKVPKEMFTV [SLC6A17] | false |
| WGEMTLSLFSLLIAAAVYIMDTVG [SLC19A2] | false |
| QLDIEEEGRPGAATFHVGGGPAQN [TFE3] | true |
| LPPVSTSFTTGGLRIPFPRDCGEE [TNXB] | true |
| RLAADDFRTKFETEQALRLSVEAD [KRT17] | true |
| ALILHQRIHSGKKPYACDECAKAF [ZNF396] | false |
| ILSKMPKPKPPPNSEGEQGPNGSQ [CCNC] | true |
| SSAGSAEQTAPGDSTGYMEVSLDS [EHMT1] | true |
| VVTLWYRAPEVLLQSTYATPVDMW [CDK4] | false |
| MEGLETAEGSNSESSDDDSEEAPS [SDE2] | true |
| SVSWWGLSPALDLQAESPPVDPDS [DNAAF3] | true |
| DLCPPIGRRAATALLWLSCSIALL [GNAS] | false |
| LKSSILIAMAVYTYLRLIVDHHGT [INTS3] | false |
| DDFFRHESGEHFRSLLGYDPQILQ [RAD54B] | false |
| NDRDFLTRIFTEDRFAQDSEMKKC [PPEF2] | true |
| DTFQKELMCFDPDTDKWIQKAPMT [KLHL13] | true |
| NHGFEVLYHSVKQGPISTKELADF [FCHO1] | false |
| LTQWKDSLVSLVLYNMDLSDDHIR [ZER1] | false |
| MKKIKKLENDTISKQLTLEQLRRE [CCDC6] | false |
| EMIQTSKTEITDLRRTMQELEIEL [KRT15] | false |
| IVAIIPYFITLGTEIAEQEGNQKG [KCNA1] | false |
| GTAGPLALARDLLSETADPFFVLN [GMPPB] | false |
| TPETRAKFTQDNLCRAQRERLASA [TEKT4] | true |
| GSRVISHYAGQDATDPFVAFHINK [FADS1] | false |
| PLEGSAKGKVQAELSQPLTAGGAI [RBBP5] | true |
| QNLNDRLASYLEKVRALEEANADL [KRT13] | true |
| RHVAPIPSHYDVQDRFRIELSEEG [MOSPD3] | true |
| EDEGFVREEEDRALPENEFKKQIW [KCNA4] | true |
| VDGRHLLRTLSRAKFWPRRRFNFF [DNAAF3] | false |
| IHFDSYITCVSGAIVDLISRQYDK [FBXO33] | false |
| VDKYVNSFVLKNFPALLSTGEFLK [KLHL13] | false |
| HVIGEDAACIAYIRLTQYIDGQGR [CAMK2B] | false |
| ELEGTEELCCVAELDNPMQQKWTK [C2CD2L] | true |
| PPPSAPASEYCPGKLSWGTMARAL [WDR88] | false |
| FEFQVRVCDSCYDSIKDEDRTSLA [WDFY1] | false |
| ITLFLLGAAKGKEVCYEDLGCFSD [PNLIPRP1] | false |
| SQVCRVAYEIMQTLHPDASANFHS [FUT8] | false |
| AKDPGKGELPNHPKPAGGAIPTKK [FBF1] | true |
| GKVAVGQDDLTVVLNEEGICTQKC [VPS39] | true |
| SSKLVTKKAPQPAKPRLAERMTTR [HDAC6] | true |
| MECYDIYSKTWTKQPDLTMVRKIG [GAN] | false |
| RERAVEWRERAVEKRERALEEVER [ZBED2] | true |
| LSLQKEQLQLKIIEIEDEAEKWQK [TRIM29] | false |
